systemTested: STAT3 (Homo sapiens, UniProt P40763)
Construct: expressed in transfected cells; host or cells: A549
Sequence (P40763 whole entry): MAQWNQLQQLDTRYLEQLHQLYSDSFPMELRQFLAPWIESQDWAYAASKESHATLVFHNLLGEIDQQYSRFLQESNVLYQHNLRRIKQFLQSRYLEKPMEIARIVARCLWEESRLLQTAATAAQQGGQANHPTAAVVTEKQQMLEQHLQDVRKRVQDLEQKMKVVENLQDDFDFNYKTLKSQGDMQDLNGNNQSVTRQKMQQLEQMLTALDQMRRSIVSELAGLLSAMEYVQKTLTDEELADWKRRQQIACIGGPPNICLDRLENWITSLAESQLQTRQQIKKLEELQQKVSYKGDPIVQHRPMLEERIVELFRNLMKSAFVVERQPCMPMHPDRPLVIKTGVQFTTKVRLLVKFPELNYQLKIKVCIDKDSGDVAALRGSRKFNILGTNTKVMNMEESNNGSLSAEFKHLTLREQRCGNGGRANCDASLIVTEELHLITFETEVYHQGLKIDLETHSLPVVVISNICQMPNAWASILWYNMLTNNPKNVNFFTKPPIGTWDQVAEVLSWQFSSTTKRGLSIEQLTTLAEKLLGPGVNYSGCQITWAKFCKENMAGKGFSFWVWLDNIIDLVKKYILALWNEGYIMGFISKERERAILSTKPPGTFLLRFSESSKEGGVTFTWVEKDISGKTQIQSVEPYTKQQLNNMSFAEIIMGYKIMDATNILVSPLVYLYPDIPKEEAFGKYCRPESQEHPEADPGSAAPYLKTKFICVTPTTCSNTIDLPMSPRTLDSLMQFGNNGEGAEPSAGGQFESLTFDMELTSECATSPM
testDetails: STAT3 HiBiT degradation assay (Nano-Glo HiBiT lytic detection) in transfected A549 cells
Format: cell-based
assayConditions: 24 h compound incubation, read-out: STAT3 HiBIT A549 degradation 24 h: Average external-Abs DC50
observedProperty: DC50

Field: example entries. Status: answers known.
Problem: Could you share which DC50 value was measured for Cn1c(=O)n(C2CCC(=O)NC2=O)c2ccc(CCCCCCc3cc4c5c(c3)C[C@@H](C(=O)N[C@@H](CCC(N)=O)C(=O)NCc3ccc(S(C)(=O)=O)cc3)N5C(=O)[C@@H](NC(=O)c3cc5cc(C(=O)P(=O)(O)O)ccc5[nH]3)CC4)cc21 (some centres unmarked) ?
Solution: 10 to 100 nM

Problem: Try this molecule too: "CC(=O)N1CC[C@H]2CC[C@@H](C(=O)N[C@H](CCC(N)=O)COc3cccc(CCCCC(=O)N[C@H](C(=O)N4C[C@H](O)C[C@H]4C(=O)N[C@@H](C)c4ccc(-c5scnc5C)cc4)C(C)(C)C)c3Cl)N2C(=O)[C@@H](NC(=O)c2cc3cc(C(=O)P(=O)(O)O)ccc3[nH]2)C1"
Solution: 100 to 1000 nM

Next:
Problem: Could you share which DC50 value was measured for "CC(=O)N1CC[C@H]2CC[C@@H](C(=O)N[C@@H](CCC(N)=O)COc3cc(C)cc(CCCCCC(=O)N[C@H](C(=O)N4C[C@@H](O)C[C@H]4C(=O)N[C@@H](C)c4ccc(-c5scnc5C)cc4)C(C)(C)C)c3F)N2C[C@@H](NC(=O)c2cc3cc(C(=O)P(=O)(O)O)ccc3[nH]2)C1" ?
Solution: > 1000 nM

Problem: Try this molecule too: "Cc1ncsc1-c1ccc(C2(NC(=O)[C@@H]3C[C@@H](O)CN3C(=O)[C@@H](NC(=O)CCCCc3cccc(OC[C@H](CCC(N)=O)NC(=O)[C@@H]4CC[C@@H]5CCCC[C@H](NC(=O)c6cc7cc(C(=O)P(=O)(O)O)ccc7[nH]6)C(=O)N54)c3Cl)C(C)(C)C)CC2)cc1"
Solution: < 10 nM

Problem: Try this molecule too: Cn1c(=O)n(C2CCC(=O)NC2=O)c2ccc(NC[C@H]3CC[C@H](C(=O)N4CC[C@H]5CC[C@@H](C(=O)N[C@@H](CCC(N)=O)C(=O)NCc6ccc(S(C)(=O)=O)cc6)N5C(=O)[C@@H](NC(=O)c5cc6cc(C(=O)P(=O)(O)O)ccc6[nH]5)C4)CC3)cc21 (some centres unmarked)
Solution: 10 to 100 nM

====

systemTested: STAT3 (Homo sapiens, UniProt P40763)
Construct: expressed in transfected cells; host or cells: A549
testDetails: STAT3 HiBiT degradation assay (Nano-Glo HiBiT lytic detection) in transfected A549 cells
Assay type: cell-based
assayConditions: 24 h compound incubation, read-out: STAT3 HiBIT A549 degradation 24 h: Average external-Abs DC50
Catalogue of compounds with associated DC50

Field: example entries. Status: answers known.
Problem: Could you share which DC50 value was measured for "CC(=O)N1CC[C@H]2CC[C@@H](C(=O)N[C@@H](CCC(N)=O)COc3cc(F)cc(CCCC(=O)N[C@H](C(=O)N4C[C@H](O)C[C@H]4C(=O)N[C@@H](C)c4ccc(-c5scnc5C)cc4)C(C)(C)C)c3Cl)N2C(=O)[C@@H](NC(=O)c2cc3cc(C(=O)P(=O)(O)O)ccc3[nH]2)C1" ?
Solution: < 10 nM

Problem: Try this compound too: C[C@H](NC(=O)[C@@H]1Cc2cc(CCCCCCc3ccc4c(c3)n(C)c(=O)n4C3CCC(=O)NC3=O)cc3c2N1C(=O)[C@@H](NC(=O)c1cc2cc(C(=O)P(=O)(O)O)ccc2[nH]1)CC3)C(=O)NCc1ccc(S(C)(=O)=O)cc1 (stereo partly drawn)
Solution: > 1000 nM

Problem: Try this compound too: CC(C)c1ccc(CNC(=O)[C@H](CCC(N)=O)NC(=O)[C@@H]2CC[C@@H]3CCN(C(=O)[C@H]4CC[C@@H](CCc5ccc6c(c5)n(C)c(=O)n6C5CCC(=O)NC5=O)CC4)C[C@H](NC(=O)c4cc5cc(C(F)(F)P(=O)(O)O)ccc5s4)C(=O)N32)cc1 (stereo partly drawn)
Solution: > 1000 nM

Problem: Try this compound too: Cn1c(=O)n(C2CCC(=O)NC2=O)c2ccc(CC[C@H]3CC[C@H](C(=O)N4CC[C@H]5CC[C@@H](C(=O)N[C@@H](CCC(N)=O)C(=O)NCc6ccc(S(C)(=O)=O)cc6)N5C(=O)[C@@H](NC(=O)c5cc6cc(C(=O)P(=O)(O)O)ccc6[nH]5)C4)CC3)cc21 (stereo partly drawn)
Solution: 10 to 100 nM

Problem: Try this compound too: Cn1c(=O)n(C2CCC(=O)NC2=O)c2ccc(C[C@H]3CC[C@H](CC(=O)N4CC[C@H]5CC[C@@H](C(=O)N[C@@H](CCC(N)=O)C(=O)NCc6ccc(S(C)(=O)=O)cc6)N5C(=O)[C@@H](NC(=O)c5cc6cc(C(=O)P(=O)(O)O)ccc6[nH]5)C4)CC3)cc21 (stereo partly drawn)
Solution: 10 to 100 nM

Next:
Problem: Could you share which DC50 value was measured for "CC(=O)N1CC[C@H]2CC[C@@H](C(=O)N[C@@H](CCC(N)=O)COc3cc(C)cc(CCCC(=O)N[C@H](C(=O)N4C[C@H](O)C[C@H]4C(=O)N[C@@H](C)c4ccc(-c5scnc5C)cc4)C(C)(C)C)c3Cl)N2C(=O)[C@@H](NC(=O)c2cc3cc(C(=O)P(=O)(O)O)ccc3[nH]2)C1" ?
Solution: < 10 nM

Problem: Try this compound too: CC(C)c1ccc(CNC(=O)[C@H](CCC(=O)O)NC(=O)[C@@H]2CC[C@@H]3CCN(C(=O)[C@H]4CC[C@@H](CCc5ccc6c(c5)n(C)c(=O)n6C5CCC(=O)NC5=O)CC4)C[C@H](NC(=O)c4cc5cc(C(=O)P(=O)(O)O)ccc5[nH]4)C(=O)N32)cc1 (stereo partly drawn)
Solution: > 1000 nM

Problem: Try this compound too: CC(C)c1ccc(CNC(=O)[C@H](CCC(N)=O)NC(=O)[C@@H]2CC[C@@H]3CCN(C(=O)[C@H]4CC[C@@H](CCc5ccc6c(c5)n(C)c(=O)n6C5CCC(=O)NC5=O)CC4)C[C@H](NC(=O)c4cc5cc(C(=O)P(=O)(O)O)ccc5[nH]4)C(=O)N32)c(Cl)c1 (stereo partly drawn)
Solution: 10 to 100 nM

Problem: Try this compound too: "COC(=O)N1CC[C@H]2CC[C@@H](C(=O)N[C@@H](CCC(N)=O)COc3cccc(CCCC(=O)N[C@H](C(=O)N4C[C@H](O)C[C@H]4C(=O)N[C@@H](C)c4ccc(-c5scnc5C)cc4)C(C)(C)C)c3Cl)N2C(=O)[C@@H](NC(=O)c2cc3cc(C(F)(F)P(=O)(O)O)ccc3[nH]2)C1"
Solution: > 1000 nM
